Reference for the values: patent US7045528B2

- TESTED_SYSTEM: unphosphorylated VEGF-R2Δ50 (FLVK) (Homo sapiens, UniProt P35968, DEL940-989/E990V)
- Construct: VEGF-R2Δ50 contains residues 806–939 and 990–1171
- Sequence (P35968 with tags, fused parts or gaps DEL940-989/E990V limits assumed): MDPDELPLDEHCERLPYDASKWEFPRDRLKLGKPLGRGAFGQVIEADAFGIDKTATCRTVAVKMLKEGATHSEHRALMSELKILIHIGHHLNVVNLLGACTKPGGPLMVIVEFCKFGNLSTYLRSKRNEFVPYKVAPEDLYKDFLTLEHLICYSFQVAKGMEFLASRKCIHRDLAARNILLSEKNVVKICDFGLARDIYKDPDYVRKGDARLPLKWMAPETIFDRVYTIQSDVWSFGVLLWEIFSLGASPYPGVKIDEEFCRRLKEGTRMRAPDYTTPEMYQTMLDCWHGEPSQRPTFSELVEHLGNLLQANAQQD
- TEST_DETAILS: VEGF-R2 coupled spectrophotometric assay, unphosphorylated VEGF-R2Δ50 (FLVK)
- CONDITION_NOTES: unphosphorylated VEGF-R2Δ50
pKi: −log10 of the molar value.
OBSERVED_PROPERTY: pKi

molecule="CNC(=O)c1c(C)sc2cc(Oc3ccnc4cc(-c5nc(CO)cs5)sc34)ccc12 [Example 128]" measured_result=9.24

(A) CNC(=O)c1c(C)sc2cc(Oc3ccnc4cc(C(=O)N5CC[C@@H](O)C5)sc34)ccc12 [Example 6]
(B) CNC(=O)c1c(C)n(C)c2cc(Oc3ccnc4cc(C(=O)N(C)CCCN(C)C)sc34)ccc12 [Example 32]
(C) CNC(=O)c1cn(C)c2cc(Oc3ccnc4cc(-c5nccn5C)sc34)ccc12 [Example 23]
(D) Cc1c(C(=O)NCC2CC2)c2ccc(Oc3ccnc4cc(-c5nccn5C)sc34)cc2n1C [Example 55]
Incoming: // smallest pKi at index 0, largest at the end # respond with the labels, arranged in the requested order
Outgoing: C, B, D, A
(C: 7.11, B: 7.40, D: 8.31, A: 9.14)

* * *

- TESTED_SYSTEM: PDGFRβ (Homo sapiens)
- Construct: expressed in transfected cells; host or cells: porcine aorta endothelial (PAE)-PDGFRβ cells
- TEST_DETAILS: PAE-PDGFRβ phosphorylation in PAE-PDGFRB cells assay
- Format: cell-based
- CONDITION_NOTES: PAE cells overexpressing human PDGFRβ, PDGF-BB stimulated; read-out: PAE PDGFR autophos IC50 (nM) AVG
OBSERVED_PROPERTY: IC50 (nM)

structure_notation=CNC(=O)c1c(C)oc2cc(Oc3ccnc4cc(C(=O)N5CC[C@@H](OC)C5)sc34)ccc12 measured_result=14.4

(a) CCc1oc2cc(Oc3ccnc4cc(C(=O)N5CCC[C@H]5CO)sc34)ccc2c1C(=O)NC
(b) CCc1sc2cc(Oc3ccnc4cc(-c5nccn5C)sc34)ccc2c1C(=O)NC
(c) CCCNC(=O)c1c(C)n(C)c2cc(Oc3ccnc4cc(-c5nccs5)sc34)ccc12
Incoming: Reorder: IC50, max to min. # respond with the labels, arranged in the requested order
Outgoing: a, b, c

* * *

- TESTED_SYSTEM: unphosphorylated VEGF-R2Δ50 (FLVK) (Homo sapiens, UniProt P35968, DEL940-989/E990V)
- Construct: VEGF-R2Δ50 contains residues 806–939 and 990–1171; made in house; host or cells: baculovirus/insect cell system
- TEST_DETAILS: VEGF-R2 coupled spectrophotometric assay, unphosphorylated VEGF-R2Δ50 (FLVK)
- Format: biochemical
- CONDITION_NOTES: 50 nM compound; unphosphorylated VEGF-R2Δ50; read-out: FLVK (% inh @ 50 nM)
- Protocol: VEGF-R2 Construct for Assay: This construct determines the ability of a test compound to inhibit tyrosine kinase activity. […] The production of ADP from ATP that accompanies phosphoryl transfer was coupled to oxidation of NADH using phosphoenolpyruvate (PEP) and a system having pyruvate kinase (PK) and lactic dehydrogenase (LDH). The oxidation of NADH was monitored by following the decrease of absorbance at 340 nm (e340=6.22 cm^−1 mM^−1) using a Beckman DU 650 spectrophotometer. […]
OBSERVED_PROPERTY: inhibition at 0.05 µM (%)

Solved cases (4 shown):
molecule="CCCNC(=O)c1c(C)oc2cc(Oc3ccnc4cc(C(=O)N5CC[C@@H](OC)C5)sc34)ccc12 [Example 92]" tested_system="unphosphorylated VEGF-R2Δ50 (FLVK) (Homo sapiens, UniProt P35968, DEL940-989/E990V)" observed_property="inhibition at 0.05 µM" measured_result=100
molecule="CCc1oc2cc(Oc3ccnc4cc(C(=O)N5CC[C@@H](O)C5)sc34)ccc2c1C(=O)NC [Example 95]" tested_system="unphosphorylated VEGF-R2Δ50 (FLVK) (Homo sapiens, UniProt P35968, DEL940-989/E990V)" observed_property="inhibition at 0.05 µM" measured_result=89
molecule="CO[C@@H]1CCN(C(=O)c2cc3nccc(Oc4ccc5c(C(=O)NCC(C)C)c(C)oc5c4)c3s2)C1 [Example 87]" tested_system="unphosphorylated VEGF-R2Δ50 (FLVK) (Homo sapiens, UniProt P35968, DEL940-989/E990V)" observed_property="inhibition at 0.05 µM" measured_result=96
molecule="CCCNC(=O)c1c(C)n(C)c2cc(Oc3ccnc4cc(C(=O)N5CCC[C@H]5CO)sc34)ccc12 [Example 58]" tested_system="unphosphorylated VEGF-R2Δ50 (FLVK) (Homo sapiens, UniProt P35968, DEL940-989/E990V)" observed_property="inhibition at 0.05 µM" measured_result=55

(I) CNC(=O)c1c(C)n(C)c2cc(Oc3ccnc4cc(-c5cccc(CN(C)C)n5)sc34)ccc12 [Example 52]
(II) Cc1sc2cc(Oc3ccnc4cc(-c5nccn5C)sc34)ccc2c1C(=O)NC1CC1 [Example 117]
Incoming: Quick one: lower inhibition at 0.05 µM, I or II ? Output the label that corresponds to your choice.
Outgoing: I

* * *

- TESTED_SYSTEM: PDGFRβ (Homo sapiens, UniProt P09619)
- Construct: expressed in transfected cells; host or cells: porcine aorta endothelial (PAE)-PDGFRβ cells
- Sequence (P09619 33-1106): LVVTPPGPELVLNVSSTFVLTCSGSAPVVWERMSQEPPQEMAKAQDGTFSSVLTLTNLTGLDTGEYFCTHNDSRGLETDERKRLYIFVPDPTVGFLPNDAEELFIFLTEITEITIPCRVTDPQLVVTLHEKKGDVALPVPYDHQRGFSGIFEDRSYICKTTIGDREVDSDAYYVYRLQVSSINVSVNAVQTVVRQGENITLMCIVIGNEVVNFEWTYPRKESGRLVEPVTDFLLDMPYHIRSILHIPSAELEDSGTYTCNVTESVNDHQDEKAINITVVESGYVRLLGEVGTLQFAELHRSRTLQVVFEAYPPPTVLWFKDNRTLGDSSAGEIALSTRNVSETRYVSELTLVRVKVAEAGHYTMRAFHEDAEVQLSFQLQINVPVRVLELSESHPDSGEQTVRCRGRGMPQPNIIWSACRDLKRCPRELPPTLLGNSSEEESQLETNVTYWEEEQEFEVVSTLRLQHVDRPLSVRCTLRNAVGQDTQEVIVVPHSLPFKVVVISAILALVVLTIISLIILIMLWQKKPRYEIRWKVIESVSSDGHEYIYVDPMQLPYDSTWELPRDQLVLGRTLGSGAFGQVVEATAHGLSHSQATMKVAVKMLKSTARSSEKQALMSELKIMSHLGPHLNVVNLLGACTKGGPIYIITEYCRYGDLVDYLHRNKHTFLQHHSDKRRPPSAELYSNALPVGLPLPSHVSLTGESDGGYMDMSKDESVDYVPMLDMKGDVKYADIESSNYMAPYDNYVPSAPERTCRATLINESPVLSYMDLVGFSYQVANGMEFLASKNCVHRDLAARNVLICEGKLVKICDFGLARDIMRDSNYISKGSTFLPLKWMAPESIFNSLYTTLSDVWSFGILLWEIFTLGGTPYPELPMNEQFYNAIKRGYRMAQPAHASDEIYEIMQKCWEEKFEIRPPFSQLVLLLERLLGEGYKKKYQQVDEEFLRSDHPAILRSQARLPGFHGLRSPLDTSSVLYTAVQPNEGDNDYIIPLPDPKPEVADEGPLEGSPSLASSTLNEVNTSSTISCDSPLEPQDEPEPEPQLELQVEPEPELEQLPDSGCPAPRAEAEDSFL
- TEST_DETAILS: PAE-PDGFRβ phosphorylation in PAE-PDGFRB cells assay
- Type: cell-based
- CONDITION_NOTES: library amides from Example 101 (R101), crude mixtures in DMSO; read-out: PAE PDGFR autophos IC50
- Experimental: PAE-PDGFRβ Phosphorylation in PAE-PDGFRB Cells Assay This assay determines the ability of a test compound to inhibit the autophosphorylation of PDGFRβ in porcine aorta endothelial (PAE)-PDGFRβ cells. PAE cells that overexpress human PDGFRβ were used in this assay. […] Phosphorylation status was assessed by spectrophotometer reading at 450 nm. IC50 values were calculated by curve fitting using a four-parameter analysis.
pIC50: −log10 of the molar value.
Each record here notes measured pIC50.

structure_notation=Cc1oc2cc(Oc3ccnc4ccsc34)ccc2c1C(=O)Nc1ccc2cn[nH]c2c1 tested_system="PDGFRβ (Homo sapiens, UniProt P09619)" measured_result=7.24

Incoming: Report its pIC50 with PDGFRβ (Homo sapiens, UniProt P09619) as the test system: Cc1oc2cc(Oc3ccnc4ccsc34)ccc2c1C(=O)Nc1nccs1
Outgoing: < 7.00

Incoming: Report its pIC50 with PDGFRβ (Homo sapiens, UniProt P09619) as the test system: Cc1oc2cc(Oc3ccnc4ccsc34)ccc2c1C(=O)Nc1n[nH]c2cccc(F)c12
Outgoing: < 7.00

* * *

- TESTED_SYSTEM: unphosphorylated VEGF-R2Δ50 (FLVK) (Homo sapiens, UniProt P35968, DEL940-989/E990V)
- Construct: VEGF-R2Δ50 contains residues 806–939 and 990–1171; made in house; host or cells: baculovirus/insect cell system
- TEST_DETAILS: VEGF-R2 coupled spectrophotometric assay, unphosphorylated VEGF-R2Δ50 (FLVK)
- Format: biochemical
- CONDITION_NOTES: 50 nM compound; unphosphorylated VEGF-R2Δ50; read-out: FLVK (% inh @ 50 nM)
OBSERVED_PROPERTY: inhibition at 0.05 µM (%)

compound="Cc1cc2nccc(Oc3ccc4c(C(=O)NCCCN5CCOCC5)c(C)sc4c3)c2s1 [Example 140]" measured_result=90
compound="CNC(=O)c1c(C)oc2cc(Oc3ccnc4cc(C(=O)N5CCC[C@H]5COC)sc34)ccc12 [Example 79]" measured_result=90
compound="CNC(=O)c1c(C)sc2cc(Oc3ccnc4cc(C(=O)N5CCC[C@H]5COC)sc34)ccc12 [Example 2]" measured_result=75
compound="CNC(=O)c1c(C)n(C)c2cc(Oc3ccnc4cc(C(=O)N5CC[C@@H](NC)C5)sc34)ccc12 [Example 35]" measured_result=23

* * *

- TESTED_SYSTEM: unphosphorylated VEGF-R2Δ50 (FLVK) (Homo sapiens, UniProt P35968, DEL940-989/E990V)
- Construct: VEGF-R2Δ50 contains residues 806–939 and 990–1171; made in house; host or cells: baculovirus/insect cell system
- TEST_DETAILS: VEGF-R2 coupled spectrophotometric assay, unphosphorylated VEGF-R2Δ50 (FLVK)
- Format: biochemical
- CONDITION_NOTES: 50 nM compound; unphosphorylated VEGF-R2Δ50; read-out: FLVK (% inh @ 50 nM)
OBSERVED_PROPERTY: inhibition at 0.05 µM (%)

compound="CCc1oc2cc(Oc3ccnc4cc(-c5nccn5C)sc34)ccc2c1C(=O)NC [Example 94]" measured_result=81
compound="CCc1oc2cc(Oc3ccnc4cc(C(=O)N5CCC5)sc34)ccc2c1C(=O)NC [Example 98]" measured_result=86
compound="CNC(=O)c1c(C)sc2cc(Oc3ccnc4cc(-c5ccnn5C)sc34)ccc12 [Example 10]" measured_result=74
compound="CNC(=O)c1c(C)n(C)c2cc(Oc3ccnc4cc(-c5ccccn5)sc34)ccc12 [Example 42]" measured_result=76
